Organism: Rattus norvegicus
METHOD: Percent inhibition on GH release from rat pituitary cells
Assay type: functional, Pituitary gland cell
Parameters: concentration or dose not given beside the values
Items are presented alongside their recorded Inhibition.
State just the number; it will be interpreted in %.

Some compounds with known Inhibition results, for comparison:
CC(C)[C@@H]1NC(=O)[C@H](CCCCN)NC(=O)[C@@H](Cc2c[nH]c3ccccc23)NC(=O)[C@H](Cc2ccc(O)c(I)c2)NC(=O)[C@@H](NC(=O)[C@H](N)Cc2ccc(N)c(I)c2)CSSC[C@@H](C(=O)N[C@H](C(N)=O)[C@@H](C)O)NC1=O : 58
C[C@H](N)C(=O)NCC(=O)N[C@H]1CSSC[C@@H](C(=O)O)NC(=O)[C@H](CO)NC(=O)[C@H]([C@@H](C)O)NC(=O)[C@H](Cc2ccccc2)NC(=O)[C@H]([C@@H](C)O)NC(=O)[C@H](CCCCN)NC(=O)[C@H](Cc2c[nH]c3ccccc23)NC(=O)[C@H](Cc2ccccc2)NC(=O)[C@H](Cc2ccccc2)NC(=O)[C@H](CC(N)=O)NC(=O)[C@H](CCCCN)NC1=O [SOMATOSTATIN] : 66
CC(C)[C@@H]1NC(=O)[C@H](CCCCN)NC(=O)[C@@H](Cc2c[nH]c3ccccc23)NC(=O)[C@H](Cc2ccc(O)c(I)c2)NC(=O)[C@@H](NC(=O)[C@H](N)Cc2ccc(N)c(I)c2)CSSC[C@@H](C(=O)N[C@@H](CC(=O)O)C(N)=O)NC1=O : 55
CC(C)[C@@H]1NC(=O)[C@H](CCCCN)NC(=O)[C@@H](Cc2c[nH]c3ccccc23)NC(=O)[C@H](Cc2ccc(O)c(I)c2)NC(=O)[C@@H](NC(=O)[C@H](N)Cc2ccc(N)cc2)CSSC[C@@H](C(=O)N[C@H](C(N)=O)[C@@H](C)O)NC1=O : 12
CC(C)[C@@H]1NC(=O)[C@H](CCCCN)NC(=O)[C@@H](Cc2c[nH]c3ccccc23)NC(=O)[C@H](Cc2ccc(O)cc2)NC(=O)[C@@H](NC(=O)[C@H](N)Cc2ccc(N)cc2)CSSC[C@@H](C(=O)N[C@@H](C(N)=O)[C@H](C)O)NC1=O : -11

## Task // lookup Inhibition for "CC(C)[C@@H]1NC(=O)[C@H](CCCCN)NC(=O)[C@@H](Cc2c[nH]c3ccccc23)NC(=O)[C@H](Cc2ccc(O)cc2)NC(=O)[C@@H](NC(=O)[C@H](N)Cc2ccc(N)c(I)c2)CSSC[C@@H](C(=O)N[C@@H](CC(=O)O)C(N)=O)NC1=O"
## Result 17
